Biological target: UniProtKB P27361
Sequence (P27361 whole entry): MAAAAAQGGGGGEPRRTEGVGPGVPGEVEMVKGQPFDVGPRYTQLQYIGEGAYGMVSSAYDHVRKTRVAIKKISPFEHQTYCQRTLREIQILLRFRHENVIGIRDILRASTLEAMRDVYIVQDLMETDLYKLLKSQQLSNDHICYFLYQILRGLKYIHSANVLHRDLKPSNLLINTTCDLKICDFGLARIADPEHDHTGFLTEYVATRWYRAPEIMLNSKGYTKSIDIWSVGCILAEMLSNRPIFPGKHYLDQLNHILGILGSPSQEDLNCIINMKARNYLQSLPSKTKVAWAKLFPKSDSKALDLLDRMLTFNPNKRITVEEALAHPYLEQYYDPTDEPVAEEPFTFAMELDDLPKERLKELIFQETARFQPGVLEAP
Test: MAPK-ERK1 kinase assay
Format: biochemical
Conditions: 10 μM compound; read-out: MAPK-ERK1 percent of inhibition
Measured property: inhibition at 10 µM (%)

Known inhibition at 10 µM results, listed for orientation:
1) Clc1cccc(Nc2nc(C3CC3)nc3sc4c(c23)CCCC4)c1 ... 2
2) Oc1cccc(Nc2nc(C3CC3)nc3sc4ccccc4c23)c1 ... 2
3) Brc1cccc(Nc2ncnc3sc4c(c23)CCCC4)c1 ... 0
4) Fc1cccc(Nc2ncnc3sc4ccccc4c23)c1 ... 1

P = COc1cccc(Nc2nc(C3CC3)nc3sc4c(c23)CCCC4)c1
Q = Nc1ccc(Nc2ncnc3sc4c(c23)CCCC4)cc1
R = N#Cc1cccc(Nc2ncnc3sc4c(c23)CCCC4)c1
S = Fc1cccc(Nc2ncnc3sc4c(c23)CCCC4)c1
Parameters: sort_field (inhibition at 10 µM), sort_dir (desc). Ranked list of labels, please, in the requested order. Q, P, R, S
(Q: 12%, P: 6%, R: -5%, S: -14%)

1 = Clc1cccc(Nc2ncnc3sc4ccccc4c23)c1
2 = Fc1ccccc1Nc1ncnc2sc3c(c12)CCCC3
3 = Clc1cccc(Nc2nc(C3CC3)nc3sc4ccccc4c23)c1
4 = Nc1cccc(Nc2ncnc3sc4c(c23)CCCC4)c1
Parameters: sort_field (inhibition at 10 µM), sort_dir (desc). Ranked list of labels, please, in the requested order. 4, 1, 3, 2

I = Fc1ccc(Nc2ncnc3sc4c(c23)CCCC4)cc1
II = Clc1ccc(Nc2ncnc3sc4c(c23)CCCC4)cc1
III = Brc1cccc(Nc2ncnc3sc4ccccc4c23)c1
Ascending by inhibition at 10 µM, please: list the molecules accordingly. Ranked list of labels, please, in the requested order. II, I, III

P = FC(F)(F)c1cccc(Nc2nc(C3CC3)nc3sc4c(c23)CCCC4)c1
Q = Nc1cccc(Nc2nc(C3CC3)nc3sc4c(c23)CCCC4)c1
R = COc1cccc(Nc2nc(C3CC3)nc3sc4ccccc4c23)c1
Ascending by inhibition at 10 µM, please: list the molecules accordingly. Ranked list of labels, please, in the requested order. Q, P, R
(Q: 0%, P: 4%, R: 21%)

P = Oc1cccc(Nc2nc(C3CC3)nc3sc4c(c23)CCCC4)c1
Q = O=[N+]([O-])c1cccc(Nc2nc(C3CC3)nc3sc4c(c23)CCCC4)c1
Of P and Q , whose reported inhibition at 10 µM is numerically smaller? Response format: the label of the selected entry. Q
(Q: -6%, P: 9%)

* * *

Target: RSK1 (Homo sapiens)
Sequence (Q15418 whole entry, species assumed): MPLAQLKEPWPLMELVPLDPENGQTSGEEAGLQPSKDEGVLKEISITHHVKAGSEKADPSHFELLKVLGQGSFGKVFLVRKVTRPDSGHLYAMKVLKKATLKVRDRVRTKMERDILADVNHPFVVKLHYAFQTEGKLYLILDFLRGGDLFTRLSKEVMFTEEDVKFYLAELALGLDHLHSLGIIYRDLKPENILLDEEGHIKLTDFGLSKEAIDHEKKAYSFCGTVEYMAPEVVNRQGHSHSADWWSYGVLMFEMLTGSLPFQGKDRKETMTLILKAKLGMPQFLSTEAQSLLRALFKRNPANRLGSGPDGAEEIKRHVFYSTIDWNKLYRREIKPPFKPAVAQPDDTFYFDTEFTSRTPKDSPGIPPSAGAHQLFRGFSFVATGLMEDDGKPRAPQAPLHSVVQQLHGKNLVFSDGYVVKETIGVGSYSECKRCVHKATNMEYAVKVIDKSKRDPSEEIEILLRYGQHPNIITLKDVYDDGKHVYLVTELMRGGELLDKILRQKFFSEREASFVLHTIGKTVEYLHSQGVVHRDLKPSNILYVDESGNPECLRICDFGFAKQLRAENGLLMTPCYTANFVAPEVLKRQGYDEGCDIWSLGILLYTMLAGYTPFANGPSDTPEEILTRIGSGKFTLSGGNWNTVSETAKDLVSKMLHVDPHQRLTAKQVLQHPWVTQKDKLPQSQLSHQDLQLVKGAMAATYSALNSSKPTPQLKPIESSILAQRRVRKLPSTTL
Test: RSK1 kinase assay
Type: biochemical
Details: 10 μM compound; read-out: RSK1 percent of inhibition
Measured property: inhibition at 10 µM (%)

1. N#Cc1cccc(Nc2ncnc3sc4c(c23)CCCC4)c1 [Compound 5] ... 19
2. Oc1cccc(Nc2nc(C3CC3)nc3sc4c(c23)CCCC4)c1 [Compound 10] ... -12
3. N#Cc1cccc(Nc2nc(C3CC3)nc3sc4c(c23)CCCC4)c1 [Compound 14] ... -4
4. Fc1cccc(Nc2nc(C3CC3)nc3sc4ccccc4c23)c1 [Compound 16] ... 2
5. Nc1ccc(Nc2ncnc3sc4c(c23)CCCC4)cc1 [Compound 8] ... 6
6. Fc1cccc(Nc2ncnc3sc4c(c23)CCCC4)c1 [Compound 2] ... -22
7. FC(F)(F)c1cccc(Nc2nc(C3CC3)nc3sc4c(c23)CCCC4)c1 [Compound 11] ... -14
8. O=[N+]([O-])c1cccc(Nc2nc(C3CC3)nc3sc4c(c23)CCCC4)c1 [Compound 13] ... -18
9. Nc1cccc(Nc2ncnc3sc4c(c23)CCCC4)c1 [Compound 4] ... 6
10. Oc1cccc(Nc2nc(C3CC3)nc3sc4ccccc4c23)c1 [Compound 19] ... -11

I = Brc1cccc(Nc2ncnc3sc4ccccc4c23)c1 [Compound 23]
II = Clc1cccc(Nc2nc(C3CC3)nc3sc4c(c23)CCCC4)c1 [Compound 9]
III = Brc1cccc(Nc2ncnc3sc4c(c23)CCCC4)c1 [Compound 3]
IV = Clc1ccc(Nc2ncnc3sc4c(c23)CCCC4)cc1 [Compound 7]
Ascending by inhibition at 10 µM, please: list the molecules accordingly. Ranked list of labels, please, in the requested order. IV, I, II, III
